This listing pairs molecules with measured TGI.
- Test system: T-47D breast
- protocol summary: NCI tumour cell line growth inhibition, 48 h
parameter measured: TGI (µM)

chemical smiles | measurement target | modifier sign | observed value
CN(C)CCCn1c(=O)c2ccccc2c2cnc3[nH]ccc3c21 | T-47D breast | = | 7.42
CCOC(=O)Nc1ccc(S(=O)(=O)Nn2cnnc2)cc1 | T-47D breast | > | 100
O=C(O)/C(Cc1ccnc2ccccc12)=N\O | T-47D breast | > | 100
CC(=O)OC[C@H]1On2nnnc2[C@H](OC(C)=O)[C@@H](OC(C)=O)[C@@H]1OC(C)=O | T-47D breast | > | 100
C#C[C@@]1(O)[C@@H](CO)O[C@@H](n2cc(I)c3c(N)ncnc32)[C@@H]1O | T-47D breast | = | 0.127
CSc1nc2nc3c(nc2c(=O)n1C)C(=O)c1ccccc1C3=O | T-47D breast | = | 0.843
